Recorded values, source ChEMBL document CHEMBL1201862.

Tested on: UACC-62
test.summary: NCI tumour cell line growth inhibition, 48 h
Calls of active or inactive are those of the source. No stated cut-off is given here; in the data, active = GI50 up to about 1.1 µM and inactive = higher.
I would appreciate it if you answered using one of these outcomes: TRUE for active, FALSE for inactive

Inquiry: Dear all, I need the recorded test outcome for COC1CC(N)(c2ccccc2)C(O)C(C)O1 (configuration not stated) , thank you.
Reply text: FALSE

Inquiry: Test call, this molecule: CC(C)NC(=O)OCc1c(COC(=O)NC(C)C)c(-c2cc[n+](COC(=O)C3CCCCC3)cc2)n2c1CCC2
Reply text: FALSE

Inquiry: Which outcome was assigned to C=CCn1cnc2c(O)nc(Nc3ccccc3)nc21 in this test?
Reply text: FALSE

Inquiry: Returns: the outcome recorded for Cc1c2ccccc2c(C)n2c1nc1cc(Cl)c(Cl)cc12 in this assay.
Reply text: FALSE

Inquiry: So what was the verdict on C/N=C1\S/C(=N\c2ccc(N(C)C)cc2)N1C in this test?
Reply text: FALSE

Inquiry: What is the recorded call for this molecule in the test? CCC1=C(C=O)c2cc3[nH]c(cc4nc(c5c6[nH]c(cc1n2)c(C)c6C(=O)C5C(=O)OC)C(CCC(=O)OC)C4C)c(C)c3CC (configuration not stated)
Reply text: FALSE

Inquiry: Just curious, what result did CC(=O)OC1C(O)C(C)OC(OC2C(OC(=O)C3CCC4C(C3)OC3(CC(OC(=O)/C=C/c5ccccc5)C(C)CO3)C43CO3)OC(C)C(O)C2OC(C)=O)C1O (configuration not stated) get here?
Reply text: TRUE

Inquiry: Just curious, what result did CSCCC(NC(=O)Cc1ccc(C(=O)c2ccccc2)cc1)C(=O)N1CCN(CCCCN2c3ccccc3Sc3cc(N=[N+]=[N-])ccc32)CC1 (configuration not stated) get here?
Reply text: FALSE

Inquiry: Fill in: this test's call for COc1ccc2c(c1)CN1C(=N2)CSC1c1cc([N+](=O)[O-])ccc1Cl (configuration not stated) is ___
Reply text: FALSE

Inquiry: Give the logged outcome of this assay for the following molecule: O=C(/C=C/c1ccccc1)Oc1cccc(Br)c1
Reply text: FALSE

Inquiry: Hello, I am checking results. What call was entered for N#Cc1cc2c(cc1Cl)Sc1nccn1S2(=O)=O ?
Reply text: FALSE

Inquiry: Returns: the outcome recorded for COc1c(O)ccc(C2=Cc3ccc(O)cc3OC2)c1OC in this assay.
Reply text: FALSE

Inquiry: # lookup: test call for COc1ccc(NC(=S)Nc2cc(C)cc(C)n2)cc1
Reply text: FALSE

Inquiry: Which result was noted for this molecule in the test: N#C/C(=C\Nc1ccccn1)C(=O)c1ccco1
Reply text: FALSE

Inquiry: How was CCC(=O)N1NC(=O)C(CC)(CC)C1=O classified in this test?
Reply text: FALSE

Inquiry: Query: recorded result category for Cc1c2c(cc3c1[nH]c1ccccc13)C(c1ccc(F)cc1)=NCC2 in this test
Reply text: TRUE

Inquiry: Check the results log: what was the call for COC(=N)CCCl ?
Reply text: FALSE

====

System: OVCAR-5
test.summary: NCI tumour cell line growth inhibition, 48 h
Calls of active or inactive are those of the source. Cut-off read from the data, not from the text of the source: active = GI50 up to about 1.1 µM and inactive = higher.
measured.parameter: GI50

Field GI50 (entry CC(C)NC(=O)OCc1c(COC(=O)NC(C)C)c(-c2cc[n+](COC(=O)C3CCCCC3)cc2)n2c1CCC2 ) reads > 100 µM (inactive)

The reported GI50 of the molecule CC1=C[C@H]2C[C@@]3(C)O[C@@H]([C@]4(C)CC[C@H]([C@@H](C)C(=O)O)OO4)CC3C(C)(C)[C@H]2CC1 (some centres undefined) was 3.16 µM (inactive)

// GI50 value for CC1=COC(C)(C=C(C#N)C#N)CC1 (centres undefined) : > 100 µM (inactive)

Lookup result for COc1cc(-c2c3c(cc4c2OCO4)[C@@H](Nc2ccc(-c4ccc(-c5ccc(N[C@@H]6c7cc8c(cc7C(c7cc(OC)c(O)c(OC)c7)[C@H]7C(=O)OC[C@H]67)OCO8)cc5)cc4)cc2)[C@H]2COC(=O)[C@@H]2C3)cc(OC)c1O (some centres undefined) ; measured GI50: 4.39 µM (inactive)

====

Tested on: LOX IMVI
test.summary: NCI tumour cell line growth inhibition, 48 h
The source made the active and inactive calls. No stated cut-off is given here; in the data, active = GI50 up to about 1.1 µM and inactive = higher.
// allowed return values: active, inactive

Inquiry: Dear all, I need the recorded test outcome for COc1cc(Nc2nc3ccccc3n3cccc23)cc(OC)c1OC , thank you.
Reply text: inactive

Inquiry: Hi, do you know how Cc1ccc([N+](=O)[O-])cc1NC(=O)c1cccc([N+](=O)[O-])c1O came out in this test?
Reply text: inactive

Inquiry: Give the logged outcome of this assay for the following compound: C=CCn1cnc2c(O)nc(Nc3ccccc3)nc21
Reply text: inactive

Inquiry: Tell me the recorded outcome of this test for O/N=C\c1c(O)ccc2ccccc12 .
Reply text: inactive

Inquiry: Could you check what this test reported for OC(c1cc(-c2ccccc2)nc2c1ccc1ccccc12)C1CCCCN1 (stereo unspecified) ?
Reply text: active

Inquiry: Tell me the recorded outcome of this test for COc1ccc(C(=O)Nc2ccn(CCOC(=O)c3ccc(OC)cc3)c(=O)n2)cc1 .
Reply text: inactive

Inquiry: For C1CSCCSCCSCCSCCS1 , which call appears in the assay record?
Reply text: inactive

Inquiry: Which outcome was entered for the compound O=C(/C=C/c1cccc([N+](=O)[O-])c1)c1ccc([N+](=O)[O-])cc1 in this test?
Reply text: inactive

Inquiry: Could you kindly confirm the outcome this assay logged for N#C/C(C(=O)CCl)=C1\Nc2ccccc2O1 ?
Reply text: inactive

Inquiry: // outcome(item) with item = COc1cc(OC)c(OC)cc1/C=C/c1cnnc2ccccc12
Reply text: inactive

Inquiry: Hi, sorry to bother you, what did the test record for CC1CCCc2c(C#N)c(N)nc(-c3ccc(Cl)cc3)c21 (stereo unspecified) ?
Reply text: inactive

====

Test system: OVCAR-4
test.summary: NCI tumour cell line growth inhibition, 48 h
The source made the active and inactive calls. Cut-off read from the data, not from the text of the source: active = GI50 up to about 1.1 µM and inactive = higher.
measured.parameter: GI50

GI50 reported for this molecule O=C1C2=C(c3ccccc31)C(c1cccc(Cl)c1)NC(S)=N2 (centres undefined) : 76.7 µM (inactive)

Consider Nc1nc(-c2ccccc2)cc(-c2cc(Cl)ccc2O)n1 . Its measured GI50 is 63.8 µM (inactive)

Given item COc1cccc(NC(=O)C(C)(C)C)c1SSc1c(NC(=O)C(C)(C)C)cccc1OC , the value recorded as its GI50 is 22.8 µM (inactive)

The molecule listed as CC(C)n1c2c(c3ccccc3c1=O)C(=O)c1ccccc1-2 has a reported GI50 of 50.5 µM (inactive)

====

Tested on: T47D
test.summary: NCI tumour cell line growth inhibition, 48 h
Calls of active or inactive are those of the source. No stated cut-off is given here; in the data, active = GI50 up to about 1.1 µM and inactive = higher.
The reply should name one outcome from active, inactive

Inquiry: # outcome recorded in this test, key = CC1C(c2ccccc2O)c2cc3c(cc2OC1N1CCCC1)OCO3 (configuration not stated)
Reply text: inactive

Inquiry: How was COc1cccc2c1C(=O)OC2c1cccc2ccccc12 (configuration not stated) classified in this test?
Reply text: inactive

Inquiry: Which result was noted for this compound in the test: CC12CCC(C(Br)(Br)C1=O)C2(C)C (configuration not stated)
Reply text: active

Inquiry: Please indicate how the test categorized Cc1cc(C)c(S(=O)(=O)N(CCCN)OCCON(CCCN)S(=O)(=O)c2c(C)cc(C)cc2C)c(C)c1 .
Reply text: inactive

Inquiry: So what was the verdict on CC(=O)Nc1cc(C(=O)Nc2cc(C(=O)N3CC(CCl)c4c3cc(N)c3ccccc43)nn2C)nn1C (configuration not stated) in this test?
Reply text: active

Inquiry: Which outcome was entered for the compound Cc1ccc(C2(c3ccc(C)cc3)SC(=C(C#N)C#N)c3ccccc32)cc1 in this test?
Reply text: inactive

Inquiry: In this assay, the call recorded for COC(=O)C1=C(C)NC(C)=C(C(=O)OC)C1c1ccc(N=O)cc1 was what?
Reply text: inactive

Inquiry: Which result was noted for this compound in the test: O=S(=O)(O)c1ccc2c(/N=N/c3ccc(Cl)cc3)c(O)ccc2c1
Reply text: inactive

Inquiry: I'd appreciate the recorded outcome for O=C(O)CCC(NC(=O)c1ccc(OCc2nc3cc(C(F)(F)F)ccc3nc2-c2ccccc2)cc1)C(=O)O (configuration not stated) from this test.
Reply text: inactive

Inquiry: Just curious, what result did Cc1[nH]c(=O)[nH]c(=O)c1C(=O)N(CCO)Cc1ccccc1 get here?
Reply text: inactive

Inquiry: Give the logged outcome of this assay for the following compound: CC(C)(C)OC(=O)NCCC1CN(C(=O)c2ccccc2)c2ccccc21 (configuration not stated)
Reply text: inactive

Inquiry: Please indicate how the test categorized O=C(CN1CCNCCN(CC(=O)N2CCCCC2)CCNCC1)N1CCCCC1 .
Reply text: inactive

Inquiry: For Cc1ccc2c(c1)c1ccc3c(c1n2C)C(=O)C=CC3=O , which call appears in the assay record?
Reply text: inactive

Inquiry: Which result was noted for this compound in the test: Clc1ccc(OCc2nnc3sc(-c4ccc(-c5ccc(Cl)cc5Cl)o4)nn23)cc1
Reply text: inactive

Inquiry: Hello, I am checking results. What call was entered for CN(C)c1nc(NC23CC4CC(CC(C4)C2)C3)nc(N(C)C)n1 ?
Reply text: inactive

Inquiry: What outcome does the record of this test show for Nc1ccccc1/C=C\c1ccccc1 ?
Reply text: inactive

Inquiry: Hi team, can someone confirm the assay call for O=C1C(Cl)C(c2cccc(Cl)c2)N1c1ccc(-n2c(S)nc3ccccc3c2=O)cc1 (configuration not stated) ?
Reply text: inactive

Inquiry: Per the records of this test, what outcome belongs to COc1cc2c(cc1OC)C(=O)/C(=C/c1ccc(O)cc1)CC2 ?
Reply text: inactive

Inquiry: Could you kindly confirm the outcome this assay logged for N#C/C(C(=O)CCl)=C1\Nc2ccccc2O1 ?
Reply text: inactive

Inquiry: Field: outcome | Entry: O=C(O)C1CCCN1C(=O)c1cc(Cl)ccn1 (configuration not stated)
Reply text: inactive

Inquiry: Test call, this compound: O=C(C[N+]1(c2ccccc2)CCOCC1)c1ccccc1
Reply text: inactive

Inquiry: How did this test come out for CC(C)C1CC[C@H](C)C[C@@H]1OC(=O)C(C(=O)O[C@H]1C[C@@H](C)CCC1C(C)C)C(O)[C@@H]1OC(C)(C)O[C@H]1C1COC(C)(C)O1 (some centres not stated) ?
Reply text: inactive
